test.readout: IC50

[ask] Kindly state the measured IC50 obtained for CCn1cc2ncc(N[C@@H](C)c3cc(NC(=O)c4ccc(NC)nc4)ccc3F)nc2n1 with Human PDGFRβ, cytoplasmic domain (GST-PDGFRβ) (Homo sapiens).
Sequence (P09619 with tags, fused parts or gaps): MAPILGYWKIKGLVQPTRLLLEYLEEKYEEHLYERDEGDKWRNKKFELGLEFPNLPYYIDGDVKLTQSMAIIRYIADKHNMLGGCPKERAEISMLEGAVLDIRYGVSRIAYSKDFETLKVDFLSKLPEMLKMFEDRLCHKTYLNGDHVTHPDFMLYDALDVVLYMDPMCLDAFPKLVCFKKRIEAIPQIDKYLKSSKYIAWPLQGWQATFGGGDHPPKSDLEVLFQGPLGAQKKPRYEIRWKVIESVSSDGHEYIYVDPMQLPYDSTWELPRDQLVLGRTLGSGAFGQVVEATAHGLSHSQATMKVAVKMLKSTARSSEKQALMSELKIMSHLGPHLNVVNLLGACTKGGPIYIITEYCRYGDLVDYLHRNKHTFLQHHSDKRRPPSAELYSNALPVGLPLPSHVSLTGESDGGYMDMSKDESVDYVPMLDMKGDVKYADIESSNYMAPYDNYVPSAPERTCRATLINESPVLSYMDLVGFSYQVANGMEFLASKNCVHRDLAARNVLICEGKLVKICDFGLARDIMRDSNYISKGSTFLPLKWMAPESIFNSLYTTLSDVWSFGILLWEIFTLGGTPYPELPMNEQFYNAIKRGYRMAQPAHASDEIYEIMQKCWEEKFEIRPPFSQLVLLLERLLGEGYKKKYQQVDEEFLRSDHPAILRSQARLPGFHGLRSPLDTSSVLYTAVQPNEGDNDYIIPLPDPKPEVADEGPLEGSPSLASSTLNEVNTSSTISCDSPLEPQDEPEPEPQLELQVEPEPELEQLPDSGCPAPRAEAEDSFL
[reply] < 300 nM

[ask] Which IC50 is reported with Human PDGFRβ, cytoplasmic domain (GST-PDGFRβ) (Homo sapiens) for this entry: CCn1ncc2ncc(N[C@@H](C)c3cccc(NC(=O)c4cncc(C)c4)c3)cc21 ?
[reply] ≥ 1000 nM

[ask] What measured IC50 is associated with Cc1cc(C(=O)Nc2cccc([C@H](C)Nc3cnc4cnn(C)c4n3)c2)ccc1O on Human PDGFRβ, cytoplasmic domain (GST-PDGFRβ) (Homo sapiens)?
[reply] < 300 nM

[ask] Missing value: IC50, Human PDGFRβ, cytoplasmic domain (GST-PDGFRβ) (Homo sapiens), entry Cc1n[nH]c2ncc(N[C@@H](C)c3cccc(NC(=O)c4cc(C(C)C)on4)c3)nc12 . Fill in?
[reply] < 300 nM

[ask] Notebook: pull reported IC50 for Human PDGFRβ, cytoplasmic domain (GST-PDGFRβ) (Homo sapiens), entry CCn1cc2ncc(N[C@@H](C)c3cccc(NC(=O)c4cnc(-c5cnn(C)c5)s4)c3)nc2n1
[reply] ≥ 1000 nM

[ask] Kindly state the measured IC50 obtained for Cc1cncc(C(=O)Nc2cccc([C@H](C)Nc3cnc4ccn(-c5cnn(C)c5)c4n3)c2)c1 with Human PDGFRβ, cytoplasmic domain (GST-PDGFRβ) (Homo sapiens).
[reply] < 300 nM

[ask] Please tell me: IC50 of Cc1ccc(C(=O)Nc2cccc([C@H](C)Nc3cnc4cnn(C)c4n3)c2)cc1C , system Human PDGFRβ, cytoplasmic domain (GST-PDGFRβ) (Homo sapiens)?
[reply] < 300 nM

[ask] Look up IC50 with Human PDGFRβ, cytoplasmic domain (GST-PDGFRβ) (Homo sapiens) for this molecule: C[C@H](Nc1cnc2cnn(C)c2n1)c1cccc(NC(=O)c2ccc(C3CCC3)nc2)c1
[reply] < 300 nM

[ask] For the record [2H]C([2H])([2H])n1ncc2ncc(N[C@@H](C)c3cccc(NC(=O)c4cncc(C)c4)c3)nc21 , what value of IC50 is listed for Human PDGFRβ, cytoplasmic domain (GST-PDGFRβ) (Homo sapiens)?
[reply] < 300 nM

[ask] Notebook entry, Human PDGFRβ, cytoplasmic domain (GST-PDGFRβ) (Homo sapiens) assay: IC50 of COc1cncc(C(=O)Nc2cccc([C@H](C)Nc3cnc4[nH]cc(C)c4n3)c2)c1 = ?
[reply] < 300 nM

[ask] Record CCn1cc2ncc(N[C@@H](C)c3cc(NC(=O)c4ccc(N5CCN(C)CC5)c(C)c4)ccc3F)nc2n1 : what is its IC50 with Human PDGFRβ, cytoplasmic domain (GST-PDGFRβ) (Homo sapiens)?
[reply] < 300 nM

[ask] Record CCc1cc2ncc(N[C@@H](C)c3cc(NC(=O)c4ccc(C(F)(F)F)nc4)ccc3F)nc2s1 : what is its IC50 with Human PDGFRβ, cytoplasmic domain (GST-PDGFRβ) (Homo sapiens)?
[reply] < 300 nM

[ask] Form: Entry = CCn1cc2ncc(N[C@@H](C)c3cccc(NC(=O)c4ccc(CN5CC[C@H](F)C5)c(C)c4)c3)nc2n1 | System = Human PDGFRβ, cytoplasmic domain (GST-PDGFRβ) (Homo sapiens) | IC50 = ____
[reply] < 300 nM

[ask] # value lookup — system Human PDGFRβ, cytoplasmic domain (GST-PDGFRβ) (Homo sapiens), readout IC50, item CCn1cc2ncc(N[C@@H](C)c3cc(NC(=O)c4cnn(C(C)C)c4)ccc3F)nc2n1
[reply] < 300 nM

[ask] Tell me reported IC50 for CCn1cc2ncc(N[C@@H](C)c3cccc(NC(=O)c4ccc(N(C)C)c(C)c4)c3)nc2n1 , tested with Human PDGFRβ, cytoplasmic domain (GST-PDGFRβ) (Homo sapiens).
[reply] < 300 nM

[ask] Please tell me: IC50 of CCn1cc2ncc(N[C@@H](C)c3cccc(NC(=O)c4cncc(C)c4)c3)nc2n1 , system Human PDGFRβ, cytoplasmic domain (GST-PDGFRβ) (Homo sapiens)?
[reply] 300 to 1000 nM

[ask] Observed IC50 on Human PDGFRβ, cytoplasmic domain (GST-PDGFRβ) (Homo sapiens) for Cc1ncc(C(=O)Nc2cccc([C@H](C)Nc3cnc4cnn(C)c4n3)c2)s1 , please.
[reply] < 300 nM

[ask] Query IC50 on Human PDGFRβ, cytoplasmic domain (GST-PDGFRβ) (Homo sapiens) for C[C@H](Nc1cnc2[nH]ccc2n1)c1cc(NC(=O)c2cnn(C3CCC3)c2)ccc1F
[reply] < 300 nM

[ask] // map CCn1cc(C(=O)Nc2cccc([C@H](C)Nc3cnc4[nH]nc(C)c4n3)c2)cn1 to recorded IC50 (system: Human PDGFRβ, cytoplasmic domain (GST-PDGFRβ) (Homo sapiens))
[reply] < 300 nM

[ask] # value lookup — system Human PDGFRβ, cytoplasmic domain (GST-PDGFRβ) (Homo sapiens), readout IC50, item CCn1cc2ncc(N[C@@H](C)c3cc(NC(=O)c4cnn(C5CC5)c4)ccc3F)nc2n1
[reply] < 300 nM

[ask] What reported IC50 corresponds to C[C@H](Nc1cnc2cnn(C)c2n1)c1cccc(NC(=O)c2ccn(CC(F)F)n2)c1 on Human PDGFRβ, cytoplasmic domain (GST-PDGFRβ) (Homo sapiens)?
[reply] 300 to 1000 nM

[ask] GET /values?readout=IC50&system=Human PDGFRβ, cytoplasmic domain (GST-PDGFRβ) (Homo sapiens)&item= CCOCc1cncc(C(=O)Nc2cccc([C@H](C)Nc3cnc4cnn(C)c4n3)c2)c1
[reply] < 300 nM

[ask] For the record CCn1cc2ncc(N[C@@H](C)c3cc(NC(=O)Cc4cccc(Cl)c4)ccc3F)nc2n1 , what value of IC50 is listed for Human PDGFRβ, cytoplasmic domain (GST-PDGFRβ) (Homo sapiens)?
[reply] < 300 nM

[ask] Record lookup: for Human PDGFRβ, cytoplasmic domain (GST-PDGFRβ) (Homo sapiens), what IC50 belongs to CSc1cccc(C(=O)Nc2cccc([C@H](C)Nc3cnc4cnn(C)c4n3)c2)c1 ?
[reply] < 300 nM

[ask] Human PDGFRβ, cytoplasmic domain (GST-PDGFRβ) (Homo sapiens) / IC50 / Cc1cncc(C(=O)Nc2cccc([C@H](C)Nc3cnc4ccc(C)cc4n3)c2)c1 : value?
[reply] < 300 nM

[ask] Record C[C@H](Nc1cnc2cnn(C)c2n1)c1cccc(NC(=O)c2cncc(C(F)F)c2)c1 : what is its IC50 with Human PDGFRβ, cytoplasmic domain (GST-PDGFRβ) (Homo sapiens)?
[reply] < 300 nM

[ask] Hi! What's the reported IC50 for C[C@H](Nc1cnc2cnn(C)c2n1)c1cccc(NC(=O)c2ccc(C#N)nc2)c1 on Human PDGFRβ, cytoplasmic domain (GST-PDGFRβ) (Homo sapiens)?
[reply] ≥ 1000 nM

[ask] Give the reported IC50 for C[C@H](Nc1cnc2cnn(C)c2n1)c1cccc(NC(=O)c2cc(C(F)(F)F)nn2C)c1 (system: Human PDGFRβ, cytoplasmic domain (GST-PDGFRβ) (Homo sapiens)).
[reply] < 300 nM

[ask] Query for Human PDGFRβ, cytoplasmic domain (GST-PDGFRβ) (Homo sapiens): what IC50 does the record show for C[C@H](Nc1cnc2cnn(C)c2n1)c1cccc(NC(=O)c2ccc3c(c2)CCCO3)c1 ?
[reply] < 300 nM

[ask] API: value(readout=IC50, system=Human PDGFRβ, cytoplasmic domain (GST-PDGFRβ) (Homo sapiens)) for record CCn1cc2ncc(N[C@@H](C)c3cccc(NC(=O)c4ccc(N5CCN(C)CC5)c(F)c4)c3)nc2n1
[reply] ≥ 1000 nM

[ask] Requested read-out IC50, target or system Human PDGFRβ, cytoplasmic domain (GST-PDGFRβ) (Homo sapiens), entry C[C@H](Nc1cnc2cnn(C)c2n1)c1cccc(NC(=O)c2cncc(C(F)(F)F)c2)c1
[reply] < 300 nM

* * *

Biological target: Human PDGFRα, cytoplasmic domain (GST-PDGFRα) (Homo sapiens)
Construct: made in house
Sequence (P16234 550-1089 T674I): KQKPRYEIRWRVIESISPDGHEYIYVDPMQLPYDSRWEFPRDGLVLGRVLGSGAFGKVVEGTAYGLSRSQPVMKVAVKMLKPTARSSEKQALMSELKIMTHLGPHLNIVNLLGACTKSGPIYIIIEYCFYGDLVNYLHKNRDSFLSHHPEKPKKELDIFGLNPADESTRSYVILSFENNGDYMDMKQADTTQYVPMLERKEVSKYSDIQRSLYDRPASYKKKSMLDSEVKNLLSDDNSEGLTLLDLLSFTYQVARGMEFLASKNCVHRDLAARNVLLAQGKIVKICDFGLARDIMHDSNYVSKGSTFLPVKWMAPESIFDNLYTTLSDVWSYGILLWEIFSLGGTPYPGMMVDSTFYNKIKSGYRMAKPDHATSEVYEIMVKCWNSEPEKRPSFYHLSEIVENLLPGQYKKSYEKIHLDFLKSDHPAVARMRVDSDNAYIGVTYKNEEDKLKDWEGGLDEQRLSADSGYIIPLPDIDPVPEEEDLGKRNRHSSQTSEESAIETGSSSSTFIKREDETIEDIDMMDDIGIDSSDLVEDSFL
Assay: Human PDGFRα biochemical inhibition assay (off-chip Mobility Shift Assay)
pIC50: −log10 of the molar value.
test.readout: pIC50

[ask] Dear colleague, I am looking for the recorded pIC50 of the following molecule: CCn1cc2ncc(N[C@@H](C)c3cccc(NC(=O)c4cnc(NCCOC)c(C)c4)c3)nc2n1
[reply] 6.00 to 6.52

[ask] Any idea what pIC50 was measured for CCn1cc2ncc(N[C@@H](C)c3cccc(NC(=O)c4ccc(CN5CC[C@H](O)C5)c(C)c4)c3)nc2n1 ?
[reply] 6.00 to 6.52

[ask] Entry under review: CCn1cc2ncc(N[C@@H](C)c3cccc(NC(=O)c4ccc(NC)nc4)c3)nc2n1 . Reported pIC50?
[reply] 6.00 to 6.52

[ask] Can you look up the measured pIC50 of CCn1cc2ncc(N[C@@H](C)c3cc(NC(=O)Cc4cccc(Cl)c4)ccc3F)nc2n1 for me?
[reply] > 6.52

[ask] Please report the recorded pIC50 for Cc1cncc(C(=O)Nc2cccc([C@H](C)Nc3cnc4cnn(C5CC5)c4n3)c2)c1 .
[reply] > 6.52

[ask] Which value of pIC50 has been reported for Cc1c[nH]c2ncc(N[C@@H](C)c3cccc(NC(=O)c4cnn(C(F)F)c4)c3)nc12 in the records?
[reply] > 6.52

[ask] pIC50 lookup needed for CCn1cc2ncc(N[C@@H](C)c3cccc(NC(=O)c4ccc(CN5CC6(COC6)C5)c(C)c4)c3)nc2n1 , thanks.
[reply] > 6.52
